Data provenance: ChEMBL document CHEMBL1770071

# system.name: Acetylcholinesterase (Homo sapiens)
# Sequence (P22303 whole entry): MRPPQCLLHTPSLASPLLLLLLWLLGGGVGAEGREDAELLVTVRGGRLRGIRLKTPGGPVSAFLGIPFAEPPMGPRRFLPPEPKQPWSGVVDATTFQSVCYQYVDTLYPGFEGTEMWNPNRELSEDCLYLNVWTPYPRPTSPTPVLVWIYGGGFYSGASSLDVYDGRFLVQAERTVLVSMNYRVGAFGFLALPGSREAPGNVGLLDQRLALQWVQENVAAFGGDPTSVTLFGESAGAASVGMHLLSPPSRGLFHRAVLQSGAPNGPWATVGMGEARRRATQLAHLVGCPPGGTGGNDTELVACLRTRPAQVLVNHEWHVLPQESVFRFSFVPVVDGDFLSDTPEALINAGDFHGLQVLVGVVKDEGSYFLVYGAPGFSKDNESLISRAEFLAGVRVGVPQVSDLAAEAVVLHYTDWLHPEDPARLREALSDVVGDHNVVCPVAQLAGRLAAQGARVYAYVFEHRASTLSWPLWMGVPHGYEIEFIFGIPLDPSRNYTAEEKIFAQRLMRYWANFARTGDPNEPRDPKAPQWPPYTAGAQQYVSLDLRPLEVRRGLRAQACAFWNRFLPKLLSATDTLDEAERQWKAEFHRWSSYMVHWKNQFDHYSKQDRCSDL
# experiment.summary: Inhibition of human serum AChE
readout: IC50 (µM)
One number for each entry, in µM.

A selection of reference data follows.
Tell me its IC50 given COc1cc(CNCCCCCCNC2=CC(=O)C(NCCCCCCNCc3ccc(O)c(OC)c3)=CC2=O)ccc1O as the entry.
0.102

Tell me its IC50 given O=C1C=C(NCCCCCCNCc2nc3ccccc3s2)C(=O)C=C1NCCCCCCNCc1nc2ccccc2s1 as the entry.
22

Fill in IC50 for each of the 2 compounds listed.
1. COc1cc(CNCCCNC2=CC(=O)C(NCCCNCc3ccc(O)c(OC)c3)=CC2=O)ccc1O
2. O=C1C=C(NCCCNCc2cc3ccccc3o2)C(=O)C=C1NCCCNCc1cc2ccccc2o1

0.198
21.8

* * *

# experiment.summary: Neurotoxicity in human SH-SY5Y cells assessed as decrease in cell viability by MTT assay
# Type: toxicity, cell-based
readout: pIC50
Numbers only, as −log10 of the molar value.

Tell me its pIC50 given CCN(CCCCCCNC1=CC(=O)C(NCCCCCCN(CC)Cc2ccccc2OC)=CC1=O)Cc1ccccc1OC as the entry.
4.71

API: the following record is the query input.
Tell me its pIC50 given O=C1C=C(NCCCNCc2cc3ccccc3o2)C(=O)C=C1NCCCNCc1cc2ccccc2o1 as the entry.
4.83

* * *

# system.name: Acetylcholinesterase (Homo sapiens)
# experiment.summary: Inhibition of human serum AChE
Please provide measured pIC50 for the entries that follow.
One number for each entry, as −log10 of the molar value.

Fill in pIC50 for each of the 2 compounds listed.
1. O=C1C=C(NCCCNCc2ccc(-c3nc4ccccc4s3)cc2)C(=O)C=C1NCCCNCc1ccc(-c2nc3ccccc3s2)cc1
2. O=C1C=C(NCCCCCCNCc2ccc(-c3nc4ccccc4s3)cc2)C(=O)C=C1NCCCCCCNCc1ccc(-c2nc3ccccc3s2)cc1

4.50
6.52
